target_entity: MMP-1 (Homo sapiens)
Sequence (P03956 100-469, species assumed): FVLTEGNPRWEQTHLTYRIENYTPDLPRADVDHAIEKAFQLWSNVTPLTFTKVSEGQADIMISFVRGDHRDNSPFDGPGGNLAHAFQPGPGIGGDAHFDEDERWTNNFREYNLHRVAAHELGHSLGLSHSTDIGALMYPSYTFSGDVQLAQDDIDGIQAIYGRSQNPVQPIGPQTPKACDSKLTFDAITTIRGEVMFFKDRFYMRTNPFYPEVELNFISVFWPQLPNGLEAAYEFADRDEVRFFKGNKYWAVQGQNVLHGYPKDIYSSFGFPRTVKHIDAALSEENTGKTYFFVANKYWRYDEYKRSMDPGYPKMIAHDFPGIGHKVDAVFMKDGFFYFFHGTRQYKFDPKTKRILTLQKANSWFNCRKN
experimental_protocol: MMP-1 inhibitory action (Type I collagen Activity Measurement kit, FITC-labeled collagen type I)
Type: biochemical
condition_details: MMP-1 inhibitory action, FITC-labeled collagen type I, 37° C. for 3 hr; read-out: IC50 MMP1 (Experimental Example 2)
pIC50: −log10 of the molar value.
readout_type: pIC50

Look over these answered cases.
[[record]]
compound = "CCCNC(=O)c1ccc(S(=O)(=O)NC2(C(=O)O)CC2c2ccccc2)s1 (stereo not drawn)"
readout_type = "pIC50"
value_measured = "≤ 5.00"

[[record]]
compound = "O=C(OCCCc1ccccc1C1CC1(NS(=O)(=O)c1ccc(-c2cc(C(F)(F)F)on2)s1)C(=O)O)N1CCOCC1 (stereo not drawn)"
readout_type = "pIC50"
value_measured = "≤ 6.00"

[[record]]
compound = "CC(C)(O)COc1cccc(C2CC2(NS(=O)(=O)c2ccc(-c3ccc(Cl)cc3)s2)C(=O)O)c1 (stereo not drawn)"
readout_type = "pIC50"
value_measured = "≤ 5.00"


Endpoint output: pIC50 of CN(C)CCC(=O)Nc1cccc(C2CC2(NS(=O)(=O)c2ccc(-c3ccc(Cl)cc3)s2)C(=O)O)c1 (stereo not drawn) . Value?
≤ 5.00

Tell me the measured pIC50 of O=C(O)CCc1ccccc1C1CC1(NS(=O)(=O)c1ccc(-c2ccc(Cl)cc2)s1)C(=O)O (stereo not drawn) , please.
≤ 5.00

Quick check: pIC50 of Nc1cccc([C@H]2C[C@@]2(NS(=O)(=O)c2ccc(-c3ccc(Cl)cc3)s2)C(=O)O)c1 ?
≤ 6.00

What pIC50 value was documented for this compound, O=C(O)C1(NS(=O)(=O)c2ccc(-c3ccc(Cl)cc3)s2)CC1c1cccc(OCc2cccnc2)c1 (stereo not drawn) ?
≤ 6.00

Looking for the measured pIC50 of O=C(CCc1cccc(C2CC2(NS(=O)(=O)c2ccc(-c3ccc(Cl)cc3)s2)C(=O)O)c1)N1CCSCC1 (stereo not drawn) , can you help?
≤ 5.00

###

target_entity: UniProt:O75173
Sequence (O75173 213-837, species assumed): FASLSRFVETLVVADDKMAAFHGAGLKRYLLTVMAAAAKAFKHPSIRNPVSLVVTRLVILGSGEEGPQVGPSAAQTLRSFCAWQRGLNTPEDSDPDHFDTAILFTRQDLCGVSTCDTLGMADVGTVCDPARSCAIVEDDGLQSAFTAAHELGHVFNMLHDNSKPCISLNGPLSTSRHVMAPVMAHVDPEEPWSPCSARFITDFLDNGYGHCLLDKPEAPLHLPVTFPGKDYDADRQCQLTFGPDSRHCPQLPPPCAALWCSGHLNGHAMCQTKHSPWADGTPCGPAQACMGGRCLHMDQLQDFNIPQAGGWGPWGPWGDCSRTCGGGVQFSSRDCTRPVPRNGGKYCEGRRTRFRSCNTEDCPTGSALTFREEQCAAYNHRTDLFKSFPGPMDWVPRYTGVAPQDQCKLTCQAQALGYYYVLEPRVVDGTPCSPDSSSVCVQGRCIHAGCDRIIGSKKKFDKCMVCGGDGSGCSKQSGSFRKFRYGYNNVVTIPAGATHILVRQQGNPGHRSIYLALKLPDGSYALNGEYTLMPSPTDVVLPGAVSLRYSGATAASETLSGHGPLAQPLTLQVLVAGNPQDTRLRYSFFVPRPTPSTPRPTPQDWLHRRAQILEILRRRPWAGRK
experimental_protocol: Aggrecanase-1 inhibitory action (Particle Assay, GAG release from aggrecan-containing polyacrylamide particles)
Format: biochemical
condition_details: aggrecanase-1 inhibitory action; read-out: IC50 AG1 (Experimental Example 1)
pIC50: −log10 of the molar value.
readout_type: pIC50

Param readout = pIC50; param system = UniProt:O75173; param query = O=C(O)[C@]1(NS(=O)(=O)c2ccc(-c3ccc(Cl)cc3Cl)s2)C[C@@H]1c1ccccc1 ; response: value
> 7.00

What measured pIC50 is associated with O=C(O)C1(NS(=O)(=O)N2CCn3c(cc4cc(Cl)ccc43)C2)CC1c1ccccc1 (stereo not shown) on UniProt:O75173?
≤ 6.00

Which pIC50 is reported with UniProt:O75173 for this entry: CN1CCN(CCOc2cccc(C3CC3(NS(=O)(=O)c3ccc(-c4ccc(Cl)cc4)s3)C(=O)O)c2)CC1 (stereo not shown) ?
> 6.00

Can you look up pIC50 on UniProt:O75173 for CN(C)C(=O)c1ccc(C2CC2(NS(=O)(=O)c2ccc(-c3cc(C(F)(F)F)on3)s2)C(=O)O)cc1 (stereo not shown) ?
> 6.00

Can you look up pIC50 on UniProt:O75173 for O=C(O)C1(NS(=O)(=O)c2ccc(-c3ccc(Cl)cc3)cc2)CC1c1cccc(-c2ccccc2)c1 (stereo not shown) ?
> 6.00

Please tell me: pIC50 of O=C(O)C1(NS(=O)(=O)c2ccc(-c3ccc(Cl)cc3)s2)CC1c1ccccc1 (stereo not shown) , system UniProt:O75173?
> 7.00

Item: O=C(O)C1(NS(=O)(=O)c2ccc(-c3cc(C(F)(F)F)on3)s2)CC1c1cccc(N2CCOCC2)c1 (stereo not shown) Test system: UniProt:O75173 Read-out: pIC50 Value: ?
> 7.00

###

target_entity: UniProtKB O75173
experimental_protocol: Aggrecanase-1 inhibitory action (Particle Assay, GAG release from aggrecan-containing polyacrylamide particles)
Type: biochemical
condition_details: Experimental Example 1; read-out: IC50 AG1
pIC50: −log10 of the molar value.
# pIC50 listing for each entry below

Any idea what pIC50 was measured for O=C(Nc1ccccc1)c1ccc(S(=O)(=O)N[C@@]2(C(=O)O)C[C@@H]2c2ccccc2)cc1 [Example 2-474] ?
≤ 6.00

# pIC50 lookup, item CC(C)CC(=O)N1CCN(S(=O)(=O)N[C@@]2(C(=O)O)C[C@@H]2c2ccccc2)CC1 [Example 2-513]
≤ 6.00

So what's the measured pIC50 for this one? C#Cc1ccc(S(=O)(=O)N[C@@]2(C(=O)O)C(C)[C@@H]2c2ccccc2)s1 (stereo partly drawn) [Example 2-424]
≤ 5.00

Please report the recorded pIC50 for CC1[C@H](c2ccccc2)[C@]1(NS(=O)(=O)c1cn2cc(-c3ccccc3)nc2s1)C(=O)O (stereo partly drawn) [Example 2-499] .
> 6.00

Given COCCOCC1(c2ccccc2)CC1(NS(=O)(=O)c1ccc(-c2ccc(Cl)cc2)s1)C(=O)O (stereo not drawn) [Example 2-429] , state its recorded pIC50.
> 6.00

Any idea what its pIC50 is? The compound is CC1[C@H](c2ccccc2)[C@]1(NS(=O)(=O)c1ccc2c(c1)Cc1cc(Cl)ccc1-2)C(=O)O (stereo partly drawn) [Example 2-569]
> 7.00

What measured pIC50 goes with C[C@]1(c2ccccc2)C[C@@]1(NS(=O)(=O)c1ccc(-c2ccc(C#N)c(F)c2)s1)C(=O)O [Example 2-593] ?
> 6.00

// lookup pIC50 for O=C(NCC1(c2ccccc2)CC1(NS(=O)(=O)c1ccc(-c2ccc(Cl)cc2)s1)C(=O)O)C1CCCCC1 (stereo not drawn) [Example 2-380]
> 6.00

I am curious: what pIC50 value has been reported for CC1[C@H](c2ccccc2)[C@]1(NS(=O)(=O)N1CCN(c2ccc(Cl)c(F)c2)CC1)C(=O)O (stereo partly drawn) [Example 2-459] ?
> 6.00

For the compound shown here, C[C@]1(c2ccccc2)C[C@@]1(NS(=O)(=O)c1ccc(-n2cc(CO)cn2)s1)C(=O)O [Example 2-603] , give the reported pIC50.
> 6.00

# lookup: pIC50 of O=C(O)C1(NS(=O)(=O)c2ccc(-c3cc(C(F)(F)F)on3)s2)CC1(CN1CCCC1)c1ccccc1 (stereo not drawn) [Example 2-329]
≤ 6.00

What value of pIC50 has been reported for the following compound? CC1[C@H](c2ccccc2)[C@]1(NS(=O)(=O)c1ccc(-n2cc(C(C)(C)O)cn2)s1)C(=O)O (stereo partly drawn) [Example 2-523]
> 6.00

Request the reported pIC50 associated with Cc1nc2cc(N3CCN(S(=O)(=O)N[C@@]4(C(=O)O)C(C)[C@@H]4c4ccccc4)CC3)ccc2s1 (stereo partly drawn) [Example 2-483]
≤ 6.00

Would you mind telling me what pIC50 value was observed for CC1[C@H](c2ccccc2)[C@]1(NS(=O)(=O)c1ccc(-n2cc(C(F)(F)F)cn2)cc1)C(=O)O (stereo partly drawn) [Example 2-507] ?
≤ 6.00

Entry under review: CC1[C@H](c2ccccc2)[C@]1(NS(=O)(=O)c1ccc(-n2cc(S(C)(=O)=O)cn2)s1)C(=O)O (stereo partly drawn) [Example 2-524] . Reported pIC50?
> 7.00

###

target_entity: UniProtKB O75173
experimental_protocol: Aggrecanase-1 inhibitory action (Particle Assay, GAG release from aggrecan-containing polyacrylamide particles)
Format: biochemical
condition_details: aggrecanase-1 inhibitory action; read-out: IC50 AG1 (Experimental Example 1)
Property: IC50; scope: individual compounds

Under UniProtKB O75173: IC50 value of Nc1cccc(C2CC2(NS(=O)(=O)c2ccc(-c3cc(C(F)(F)F)on3)s2)C(=O)O)c1 (stereo not shown) [Example 2-201] ?
< 1 µM

Reported IC50 for UniProtKB O75173, given O=C(O)[C@]1(NS(=O)(=O)c2ccc(-c3ccc(Cl)cc3)s2)C[C@@H]1c1cccc(NCc2cccnc2)c1 [Example 2-173] ?
< 0.1 µM

Kindly state the measured IC50 obtained for CC1C(c2ccccc2)C1(NS(=O)(=O)c1ccc(-c2ccc(Cl)cc2)s1)C(=O)O (stereo not shown) [Example 2-237] with UniProtKB O75173.
< 0.1 µM

Entry CN(C)C(=O)CCc1ccccc1C1CC1(NS(=O)(=O)c1ccc(-c2cc(C(F)(F)F)on2)s1)C(=O)O (stereo not shown) [Example 2-231] , system UniProtKB O75173: what IC50 was measured?
< 1 µM

Item O=C(O)[C@]1(NS(=O)(=O)c2ccc(-c3cccc(C(F)(F)F)c3)s2)C[C@@H]1c1ccccc1 [Example 2-134] with UniProtKB O75173 - IC50?
≥ 10 µM

Item O=C(O)C1(NS(=O)(=O)N2CCN(c3cccc(C(F)(F)F)c3)CC2)CC1c1ccccc1 (stereo not shown) [Example 2-28] with UniProtKB O75173 - IC50?
≥ 1 µM

Entry O=C(Cc1cccc(C2CC2(NS(=O)(=O)c2ccc(-c3cc(C(F)(F)F)on3)s2)C(=O)O)c1)N[C@H]1CC[C@H](O)CC1 (stereo partly shown) [Example 2-233] , system UniProtKB O75173: what IC50 was measured?
< 1 µM
